Experimental Target: T1, commercial, recombinant extracellular domain of human BAFF-R (human, UniProt Q96RJ3 1-78)
T1 construct: extracellular domain
Assay Details: Biacore analysis; antibody as loading sample, recombinant human BAFF-R ECD as sample
Recorded kon values for a group of binders are listed next.

Observe how each entry below is paired with its result.
humanized C90 variant HC1 + LC1 (antibody, V domains shown, also called Humanized HC1 + LC1; Hu90 HC-1 with Hu90 LC-1) VH: QVQLQESGPGLVKPSQTLSLTCTVSGDSITSGYWNWIRQHPGKGLEYIGYISYSGSTYYNPSLKSRVTISRDTSKNQFSLKLSSVTAADTAVYYCASPNYPFYAMDYWGQGTLVTVSS VL: EIVLTQSPATLSLSPGERATLSCRASESVDNYGISFLNWFQQKPGQAPRLLIYAASNRATGIPARFSGSGSGTDFTLTISSLEPEDFAVYYCQQSKEVPWTFGGGTKVEIKR | 610000 M⁻¹ s⁻¹
humanized C90 variant HC1 + LC3 (antibody, V domains shown, also called Humanized HC1 + LC3; Hu90 HC-1 with Hu90 LC-3) VH: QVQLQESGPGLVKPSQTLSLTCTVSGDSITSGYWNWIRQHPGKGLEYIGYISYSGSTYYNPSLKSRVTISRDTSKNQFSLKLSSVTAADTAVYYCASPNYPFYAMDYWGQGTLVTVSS VL: DIVMTQSPSSLSASVGDRVTITCRASESVDNYGISFMNWFQQKPGKAPKLLIYAASNLGSGVPSRFSGSGSGTDFTLTISSLQPEDFATYYCQQSKEVPWTFGQGTKVEIKR | 410000 M⁻¹ s⁻¹

// next item, kon requested
Ask: Requested read-out: kon. Entry: humanized C90 variant HC2 + LC1 (antibody, V domains shown, also called Humanized HC2 + LC1; Hu90 HC-2 with Hu90 LC-1) VH: EVQLQESGPGLVKPSQTLSLTCTVSGDSITSGYWNWIRQHPGKGLEYIGYISYSGSTYYNPSLKSRVTISRDTSKNQYSLKLSSVTAADTAVYYCASPNYPFYAMDYWGQGTLVTVSS VL: EIVLTQSPATLSLSPGERATLSCRASESVDNYGISFLNWFQQKPGQAPRLLIYAASNRATGIPARFSGSGSGTDFTLTISSLEPEDFAVYYCQQSKEVPWTFGGGTKVEIKR
Reply: 770000 M⁻¹ s⁻¹

These measurements were taken from patent US11161908.
